test: Assessment of brain penetration in rats; format: in vivo; conditions: rat, CSF, sc; Wistar rats, 10 mg/kg subcutaneously, 7 hours; read-out: CSF concentration
ENDPOINT LABEL: concentration at 7 h (ng/mL)
# number only, unit ng/mL dropped from output

Q. Query concentration at 7 h for "Cc1cnc(-c2cc(N3CCN(C(=O)CCS(C)(=O)=O)CC3)ncc2Cl)c(C)c1"
A. 3.9

----------
target: human Smo (Homo sapiens (Human))
Sequence (Q99835 181-787): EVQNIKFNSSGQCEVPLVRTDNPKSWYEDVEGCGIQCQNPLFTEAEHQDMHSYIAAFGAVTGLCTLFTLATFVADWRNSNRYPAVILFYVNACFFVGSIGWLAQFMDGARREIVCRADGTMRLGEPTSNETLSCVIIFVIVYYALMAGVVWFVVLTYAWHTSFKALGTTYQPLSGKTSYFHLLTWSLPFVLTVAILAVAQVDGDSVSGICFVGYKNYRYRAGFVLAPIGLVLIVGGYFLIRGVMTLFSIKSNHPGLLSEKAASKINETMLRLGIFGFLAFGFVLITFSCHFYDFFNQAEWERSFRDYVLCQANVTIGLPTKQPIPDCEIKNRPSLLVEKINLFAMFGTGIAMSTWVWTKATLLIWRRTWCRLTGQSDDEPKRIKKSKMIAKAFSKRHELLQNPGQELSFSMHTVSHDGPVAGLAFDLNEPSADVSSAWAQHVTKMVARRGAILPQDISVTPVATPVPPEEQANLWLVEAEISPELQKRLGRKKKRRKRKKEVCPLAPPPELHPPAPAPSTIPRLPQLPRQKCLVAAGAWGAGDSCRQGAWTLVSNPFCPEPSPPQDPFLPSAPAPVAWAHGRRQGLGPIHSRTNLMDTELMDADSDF
pIC50: −log10 of the molar value.
Everything with pIC50 lower than 7 is not met; everything else, including exactly 7, is met.

Illustrative cases are given below, each with its answer.
compound="Cc1cccnc1-c1cc(N2CCC(NC(=O)CCS(C)(=O)=O)CC2)ncc1Cl [Example A-95]" subject_of_test="human Smo (Homo sapiens (Human))" label=met
compound="Cc1cnc(-c2cc(N3CCC(NC(=O)CN(C)C)CC3)ncc2Cl)c(C)c1 [Example A-114]" subject_of_test="human Smo (Homo sapiens (Human))" label=met
compound="Cc1cnc(-c2cc(N3CCC(O)CC3)ncc2Cl)c(C)c1 [Example A-94]" subject_of_test="human Smo (Homo sapiens (Human))" label=met
compound="Cc1cccnc1-c1cc(N2CCN(C(=O)CO)CC2)ncc1Cl [Example A-25]" subject_of_test="human Smo (Homo sapiens (Human))" label="not met"
compound="Cc1cccnc1-c1cc(N2CCC(C(=O)NC3(CO)CCCC3)CC2)ncc1Cl [Example A-76]" subject_of_test="human Smo (Homo sapiens (Human))" label=met

Q. Given the entry Cc1cccnc1-c1cc(N2CCC(C(=O)NC3CCOCC3)CC2)ncc1Cl [Example A-77] , answer whether its pIC50 meets or surpasses 7.
A. met

Q. Reported pIC50 reaches at least 7 for CC(=O)NC1CCN(c2cc(-c3ncccc3C)c(Cl)cn2)CC1 [Example A-35] ?
A. not met

Q. Threshold query (pIC50 >= 7) on Cc1cnc(-c2cc(N3CCN(C(=O)CCS(C)(=O)=O)CC3)ncc2Cl)c(C)c1 [Example A-116]
A. met

Q. Hi, just wondering whether COC(=O)N1CCN(c2ncc(Cl)c(-c3ncccc3C)n2)CC1 [Example A-36] shows pIC50 of 7 or higher.
A. not met

Q. Say whether Cc1cccnc1-c1cc(N2CCC(NC(=O)CN(C)C)CC2)ncc1Cl [Example A-31] shows pIC50 of 7 or more.
A. met

Q. Determine whether this compound has pIC50 no lower than 7: Cc1cnc(-c2cc(N3CCC(CS(N)(=O)=O)CC3)ncc2Cl)c(C)c1 [Example A-118]
A. met

Q. Does the compound Cc1cccnc1-c1cc(N2CCN(C(=O)C(C)(C)C)CC2)ncc1Cl [Example A-43] have recorded pIC50 that is 7 or more?
A. met

Q. Has Cc1cnc(-c2ccnc(N3CCN(C(=O)CN4C[C@@H](C)O[C@@H](C)C4)CC3)c2)c(C)c1 [Example A-156] a recorded pIC50 greater than or equal to 7?
A. met

Q. Hello, I need to know if NS(=O)(=O)CC1CCN(c2ccc(Cl)c(-c3ccccn3)n2)CC1 [Example A-91] has measured pIC50 not below 7. Thanks!
A. met

Q. Can Cc1cnc(-c2nc(N3CCC(NC(=O)CO)CC3)ccc2Cl)c(C)c1 [Example A-140] be said to have pIC50 at or above 7?
A. met

Q. Dear colleague, could you confirm whether Cc1cccnc1-c1cc(N2CCC(C(=O)N(C)[C@@H]3CS(=O)(=O)C[C@H]3O)CC2)ncc1Cl [Example A-70] has pIC50 at or above 7?
A. met
